TGI overview
Tested on: KM12 colon
Test: NCI tumour cell line growth inhibition, 48 h
OBSERVED PROPERTY: TGI

INSERT INTO results (compound_string, measured_result) VALUES
  ('O=[As]O', '> 100 µM'),
  ('Cc1nc(-c2nc(C)c(C(=O)/C=C/c3ccc([N+](=O)[O-])cc3)s2)sc1C(=O)/C=C/c1ccc([N+](=O)[O-])cc1', '> 100 µM'),
  ('COc1ccc(-c2nc(N)n(C)c2SSc2c(-c3ccc(OC)cc3)nc(N)n2C)cc1', '26.7 µM'),
  ('COC(=O)CN1Cc2cc(C)cc(c2O)CN(CC(=O)OC)Cc2cc(C)cc(c2O)CN(CC(=O)OC)Cc2cc(C)cc(c2O)C1', '> 100 µM'),
  ('Nc1cccc(CCN2CCN(CCCc3ccccc3)CC2)c1', '81.5 µM'),
  ('C/C(=C1\SC(=NCc2cccs2)NC1=O)c1ccc2ncccc2c1', '> 25 µM');

* * *

Tested on: OVCAR-3 ovarian
Experiment: NCI tumour cell line growth inhibition, 48 h; in the data active = GI50 below about 0.43 µM; inactive = the rest
Possible outcomes: true for active, false for inactive

INSERT INTO measurements (compound_string, group_label) VALUES
  ('CCN(CC)c1ccc(/C=N/NC(=O)c2ccc(S(C)(=O)=O)cc2)c(O)c1', 'true'),
  ('Cc1c2c(nn1-c1ccc(S/N=C3\SCC(=O)CN3Cc3ccccc3)cc1)-c1ccccc1CC2', 'false'),
  ('O=c1oc2ccc(Br)cc2c(=O)n1-c1ccc(Br)cc1F', 'false');

* * *

TGI overview
System: UACC-257 melanoma
Test: NCI tumour cell line growth inhibition, 48 h
OBSERVED PROPERTY: TGI

INSERT INTO measurements (compound, measured_result) VALUES
  ('CCN(CC)c1ccc(/C=N/NC(=O)c2ccc(S(C)(=O)=O)cc2)c(O)c1', '5.6 µM'),
  ('CC1=C(C(=O)CC(=O)C(=O)Nc2cccc(C)c2C)Sc2ccccc2N1', '> 100 µM'),
  ('O=C(CC(=O)N1N=C(N2c3ccccc3Sc3ccccc32)CC1c1ccccc1)Nc1ccccc1Cl (stereo not drawn)', '> 100 µM'),
  ('CC(=O)OCC1OC(n2c3c(cc(C#N)c2=O)CCCCCC3)C(OC(C)=O)C(OC(C)=O)C1OC(C)=O (stereo not drawn)', '> 100 µM'),
  ('CCSc1cc(C(=O)OC)c2n(c1=O)CCCC2', '> 100 µM'),
  ('CN1CCN(CC(=O)N2CCCn3c2nc2ccccc2c3=O)CC1', '> 100 µM'),
  ('O=C(/C=C/c1cccs1)c1ccc(Cl)cc1Cl', '31.9 µM'),
  ('C#C[C@]1(O)CCC2C3CCc4cc(Oc5nc(F)nc(-n6c(C)nc7cc8ccccc8cc76)n5)ccc4C3CCC21C (stereo partly drawn)', '> 100 µM');

* * *

Tested on: OVCAR-5 ovarian
Test: NCI tumour cell line growth inhibition, 48 h
OBSERVED PROPERTY: TGI

INSERT INTO measurements (compound, measured_result) VALUES
  ('N=C1N(/N=C/c2ccccn2)C(=Nc2ccccc2)C(=S)N1c1ccccc1', '17.5 µM'),
  ('C[C@]12CCC3c4ccc(O)cc4CC[C@H]3C1CC(=O)NC2=O (stereo not given in full)', '> 10 µM'),
  ('COc1cc2c3c(c1O)-c1c(ccc(OC)c1OC)CC3N(C)CC2 (stereo not given)', '> 100 µM'),
  ('Cc1nn(-c2ccccc2)c2nc3c(c(C)nn3-c3ccccc3)c(-c3ccc(C(F)(F)F)cc3)c12', '> 100 µM'),
  ('CCOc1ccccc1N1C(=O)C(=O)C(c2nc3ccccc3s2)C(=O)C1=O', '> 100 µM'),
  ('CC(C)(C)C1=NC(=P(c2ccccc2)(c2ccccc2)c2ccccc2)C(=O)O1', '> 100 µM'),
  ('O=C(CSc1nnc(-c2ccccn2)s1)N/N=C/c1ccc([N+](=O)[O-])cc1', '> 100 µM'),
  ('CCNCC(O)COc1ccc2c(c1)[n+]([O-])nc(N)[n+]2[O-] (stereo not given)', '> 100 µM'),
  ('N#Cc1c(N2CCCC2)ncn(-c2ccccc2)c1=S', '> 100 µM'),
  ('CC1=CC(O)(c2ccccc2)C(N2CCOCC2)N1O (stereo not given)', '> 100 µM');

* * *

Tested on: NCI-H226 lung
Assay: NCI tumour cell line growth inhibition, 48 h
log10 of TGI overview
OBSERVED PROPERTY: log10 of TGI (log10 of the value in µM)

INSERT INTO assay_data (compound_string, measured_result) VALUES
  ('CCC(=O)c1c(C(F)(F)F)n([O-])c2cc(N3CCNCC3)c(F)cc2[n+]1=O', 1.40),
  ('Cc1ccc(NC(=O)/C=C/c2ccccc2)c(C)c1', 1.96),
  ('O=C1/C(=C\c2ccc(Cl)cc2)CCOc2c1ccc1ccccc21', 1.43),
  ('O=c1oc2ccc(Br)cc2c(=O)n1-c1ccc(Br)cc1F', 0.67),
  ('O=C(N=Nc1c(O)[nH]c2ccccc12)C(O)(c1ccccc1)c1ccccc1', 1.64);

* * *

System: SF-268 CNS
Test: NCI tumour cell line growth inhibition, 48 h
GI50 overview
OBSERVED PROPERTY: GI50

INSERT INTO results (compound, observed_property, measured_result) VALUES
  ('COc1cc(C)cc2c1[nH]c1ccccc12', 'GI50', '14.3 µM'),
  ('Cc1c2c(nn1-c1ccc(S/N=C3\SCC(=O)CN3Cc3ccccc3)cc1)-c1ccccc1CC2', 'GI50', '17.6 µM'),
  ('O=C1C=CC=C[C@@H]2C(C3OCCO3)CC[C@H]12.[C-]#[O+].[C-]#[O+].[C-]#[O+].[Fe] (stereo partly drawn)', 'GI50', '> 60 µM');

* * *

System: COLO 205 colon
Test: NCI tumour cell line growth inhibition, 48 h; in the data active = GI50 below about 0.43 µM; inactive = the rest
Possible outcomes: Y for active, N for inactive

INSERT INTO results (compound, target_desc, group_label) VALUES
  ('CCCN1CCN(c2ccc3nc(-c4ccc5nc(-c6ccc(C(F)(F)F)cc6)[nH]c5c4)[nH]c3c2)CC1', 'COLO 205 colon', 'N'),
  ('Cc1c2c(nn1-c1ccc(S/N=C3\SCC(=O)CN3Cc3ccccc3)cc1)-c1ccccc1CC2', 'COLO 205 colon', 'N'),
  ('O=C1NC(=NCc2ccccc2Br)S/C1=C\c1ccc2ncccc2c1', 'COLO 205 colon', 'N'),
  ('C[C@H]1CCC/C=C/[C@@H]2C[C@H](O)C[C@H]2[C@H](O)[C@@H](S(=O)C[C@@H](N)C(=O)O)CC(=O)O1 (stereo not given in full)', 'COLO 205 colon', 'Y'),
  ('Clc1ccc(CNc2ccc3nc(CCC4CCCCC4)[nH]c3c2)cc1', 'COLO 205 colon', 'N'),
  ('COc1cc(-c2cc(/C=C3\C(=O)Nc4cc(Cl)ccc43)[nH]n2)cc(OC)c1OC', 'COLO 205 colon', 'N'),
  ('COc1cccc2c1C(=O)c1c(O)c3c(c(O)c1C2=O)C[C@@](O)(C(C)=O)C[C@@H]3O[C@H]1C[C@H](N)[C@H](O)[C@H](C)O1', 'COLO 205 colon', 'Y'),
  ('CC(=O)OCc1cnc2c3c(nc4ccccc4c13)C(=O)c1cccnc1-2', 'COLO 205 colon', 'Y'),
  ('CCn1c(-c2nonc2N)nc2c(C#CC(C)(C)O)nc(CN3CCCC3)cc21', 'COLO 205 colon', 'N'),
  ('[C-]#[O+].[C-]#[O+].[C-]#[O+].[C-]#[O+].[O-]C(c1ccccc1[PH+]1OC(C(F)(F)F)(C(F)(F)F)c2ccccc21)(C(F)(F)F)C(F)(F)F.[Re] (stereo not given)', 'COLO 205 colon', 'N');

* * *

TGI overview
Tested on: OVCAR-5 ovarian
Assay: NCI tumour cell line growth inhibition, 48 h
OBSERVED PROPERTY: TGI

INSERT INTO results (molecule, measured_result) VALUES
  ('CCCCCCCCCCCCCCCCCCOP1(=O)OCCO1', '> 100 µM'),
  ('Cc1cc(C)c2c(c1)CC1(Cc3c(ccc(C)c3C)C1=O)C2=O (stereo unspecified)', '> 100 µM'),
  ('O=C(NCCCN1CCC(N2CCCCC2)CC1)C1=Cc2cc(Br)ccc2OC1', '70.2 µM'),
  ('C=C1c2nc3ccccc3n2C=C(c2ccc(OC)cc2)N1c1ccccc1', '> 100 µM'),
  ('COc1ccc(C2=C(Cl)C(=O)N(c3ccc(OC)cc3OC)C(=O)C2(Cl)Cl)cc1', '27.6 µM'),
  ('CCOCc1cc(=O)c2cc3c(cc2o1)OC(C)(C)CC3', '> 100 µM'),
  ('Clc1ccc(CNc2ccc3nc(CCC4CCCCC4)[nH]c3c2)cc1', '6.68 µM'),
  ('Cc1cc2c(=O)cc(-c3cccs3)oc2c(C(=O)O)c1C', '> 100 µM'),
  ('COc1ccn(CC(=O)c2cc3ccccc3[nH]2)c(=O)n1', '> 100 µM'),
  ('CC(=O)N1C(Nc2ccccc2)CCN1c1ccccc1 (stereo unspecified)', '> 10 µM'),
  ('Cc1cc2nc(N3C(=O)/C(=C/c4ccc(Oc5ccccc5)cc4)N=C3c3ccccc3)sc2cc1C', '> 100 µM');
